Molecular target: 53BP1 Tudor Y1502A (H. sapiens, UniProt Q12888 1484-1603, Y1502A)
Sequence (Q12888 other isoform, or with tags, fused parts or gaps Y1502A | Y1502A): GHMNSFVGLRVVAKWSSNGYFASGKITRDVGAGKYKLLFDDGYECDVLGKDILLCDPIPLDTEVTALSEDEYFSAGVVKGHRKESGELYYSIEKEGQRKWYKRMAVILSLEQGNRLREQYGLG
Test: ITC
Where no end group is shown, it is not given here. Me2 = dimethyl-lysine
OBSERVED_PROPERTY: pKd
Kindly note that pKd refers to -log10 of the concentration in mol/L and answer with the value alone.

The measured pKd associated with KRHRK(Me2)VLRDN [H4K20me2] reads 3.82
